half-life at 1 μM values by entry
test: Metabolic stability in mouse liver microsomes (MLM)

Please review the entries below; each comes with its answer.
>>> measuredresult("CC(C)Oc1ncc(-c2ncc(CNc3ccnc(C(F)(F)F)c3)cn2)cc1Cl")
"> 8 h"
>>> measuredresult("FC(F)(F)c1cc(NCc2ccc(-c3ccc(Cl)cc3)cc2)ccn1")
"> 0.667 h"

Qu. May I ask what half-life at 1 μM has been recorded for `Cc1cc(-c2ccc(CNc3ccnc(C(F)(F)F)c3)nc2)cnc1Cl` ?
Ans. < 0.0833 h

Qu. So what does the record say about half-life at 1 μM for `CC(C)Oc1ccc(-c2ncc(CNc3ccnc(C(F)(F)F)c3)cn2)cc1` ?
Ans. > 1.42 h
